Target: T1, Cynomolgus CXCR2 (cynomolgus, UniProt Q28519 3-353 (rhesus entry))
T1 construct: On transfected HEK293T or RBL-2H3 cells; native on cynomolgus neutrophils in the WBSC assay; also called cCXCR2; cynoCXCR2
T1 chain: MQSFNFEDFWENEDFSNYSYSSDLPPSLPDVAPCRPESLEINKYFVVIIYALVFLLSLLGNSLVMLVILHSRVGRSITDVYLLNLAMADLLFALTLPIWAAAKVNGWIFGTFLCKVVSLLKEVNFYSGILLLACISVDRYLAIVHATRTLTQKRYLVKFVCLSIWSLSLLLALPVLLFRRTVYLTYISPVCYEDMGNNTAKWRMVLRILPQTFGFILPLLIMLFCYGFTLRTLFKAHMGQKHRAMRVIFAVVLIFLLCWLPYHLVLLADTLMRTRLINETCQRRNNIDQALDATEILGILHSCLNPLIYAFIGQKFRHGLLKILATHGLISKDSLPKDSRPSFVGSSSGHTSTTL
Test: FACS competition vs 3 nM FMAT-Blue Gro-α
value.type: % inhibition of max (%)
Give the value in % but do not write % after it.

Input: Requested field: % inhibition of max. Item: CXCR20030 (other, Biparatopic: two VHH joined by a GlySer linker; also called 163D2-35GS-54B12; 163D2-54B12; not shown: C-terminal c-myc tag and His6 tag coded by pAX100) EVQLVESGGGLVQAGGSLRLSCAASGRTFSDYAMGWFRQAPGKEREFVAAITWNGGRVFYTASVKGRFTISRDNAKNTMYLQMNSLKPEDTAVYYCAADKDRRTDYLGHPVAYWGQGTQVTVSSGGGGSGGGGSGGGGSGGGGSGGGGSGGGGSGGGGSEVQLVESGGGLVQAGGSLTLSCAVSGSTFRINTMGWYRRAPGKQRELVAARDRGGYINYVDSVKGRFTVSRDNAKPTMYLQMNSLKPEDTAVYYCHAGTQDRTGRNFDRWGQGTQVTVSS
Output: 98.5

Input: Entry CXCR20034 (bispecific antibody, Biparatopic: two VHH joined by a GlySer linker; also called 163D2-35GS-2B2; 163D2-2B2; not shown: C-terminal c-myc tag and His6 tag coded by pAX100) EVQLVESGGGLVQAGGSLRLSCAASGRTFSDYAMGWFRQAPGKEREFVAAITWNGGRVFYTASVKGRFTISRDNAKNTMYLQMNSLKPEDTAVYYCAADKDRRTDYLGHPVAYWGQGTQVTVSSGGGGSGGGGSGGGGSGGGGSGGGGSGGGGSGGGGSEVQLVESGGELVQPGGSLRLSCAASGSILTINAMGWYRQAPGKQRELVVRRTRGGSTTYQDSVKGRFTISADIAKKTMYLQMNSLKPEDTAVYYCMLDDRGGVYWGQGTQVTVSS : reported % inhibition of max = ?
Output: 99
